The origin of these recorded values is patent US7666883B2.

- System: Chloroquine sensitive (CQS) P. falciparum strain
- Test details: Total parasite growth inhibition (PGI), chloroquine sensitive strain
- Assay type: cell-based
- Experimental parameters: Plasmodium falciparum, total parasite growth inhibition determined after 48 hr
I'd appreciate it if you could supply IC90 values for the items below.
Give your result in µg/mL as a bare value.

I am curious: what IC90 value has been reported for C=C(C(=O)OC)C(O)c1cc(-c2ccccc2)cnc1Cl (stereo not drawn) [If] ?
350

I am curious: what IC90 value has been reported for C=C(C#N)C(O)c1cc(C)cnc1Cl (stereo not drawn) [Ia] ?
85

I am curious: what IC90 value has been reported for C=C(C#N)C(O)c1cc(CC)cnc1Cl (stereo not drawn) [Ib] ?
31

I am curious: what IC90 value has been reported for C=C(C#N)C(O)c1cc(-c2ccccc2)cnc1Cl (stereo not drawn) [Ic] ?
23

I am curious: what IC90 value has been reported for C=C(C#N)C(O)c1ccc(C(=O)OC)nc1Cl (stereo not drawn) [Id] ?
29

I am curious: what IC90 value has been reported for C=C(C(=O)OC)C(O)c1cc(C)cnc1Cl (stereo not drawn) [Ie] ?
115

---

- System: Chloroquine resistant (CQR) P. falciparum strain
- Test details: Total parasite growth inhibition (PGI), chloroquine resistant strain
- Type: cell-based
- Experimental parameters: Plasmodium falciparum, total parasite growth inhibition determined after 48 hr
Endpoint name: IC90 (µg/mL)
Give your result in µg/mL as a bare value.

I am curious: what IC90 value has been reported for C=C(C#N)C(O)c1cc(C)cnc1Cl (stereo not drawn) ?
300

I am curious: what IC90 value has been reported for C=C(C(=O)OC)C(O)c1cc(C)cnc1Cl (stereo not drawn) ?
27.5

I am curious: what IC90 value has been reported for C=C(C#N)C(O)c1cc(CC)cnc1Cl (stereo not drawn) ?
26

I am curious: what IC90 value has been reported for C=C(C#N)C(O)c1cc(-c2ccccc2)cnc1Cl (stereo not drawn) ?
6.75

I am curious: what IC90 value has been reported for C=C(C#N)C(O)c1ccc(C(=O)OC)nc1Cl (stereo not drawn) ?
29

I am curious: what IC90 value has been reported for C=C(C(=O)OC)C(O)c1cc(-c2ccccc2)cnc1Cl (stereo not drawn) ?
77.5

---

I'd appreciate it if you could supply IC90 values for the items below.
- Test system: Chloroquine resistant (CQR) P. falciparum strain
- Test details: Schizont maturation inhibition (SMI), chloroquine resistant strain
- Type: cell-based
- Experimental parameters: Plasmodium falciparum, schizont maturation inhibition determined after 24 hr
Give your result in mg/L as a bare value.

I am curious: what IC90 value has been reported for C=C(C(=O)OC)C(O)c1cc(-c2ccccc2)cnc1Cl (stereo not drawn) ?
30

I am curious: what IC90 value has been reported for C=C(C#N)C(O)c1cc(-c2ccccc2)cnc1Cl (stereo not drawn) ?
1.5

I am curious: what IC90 value has been reported for C=C(C#N)C(O)c1ccc(C(=O)OC)nc1Cl (stereo not drawn) ?
25.5

I am curious: what IC90 value has been reported for C=C(C#N)C(O)c1cc(C)cnc1Cl (stereo not drawn) ?
125

I am curious: what IC90 value has been reported for C=C(C(=O)OC)C(O)c1cc(C)cnc1Cl (stereo not drawn) ?
7

I am curious: what IC90 value has been reported for C=C(C#N)C(O)c1cc(CC)cnc1Cl (stereo not drawn) ?
6.5
